assay notes: yeast display, Sf9 membrane polyspecificity reagent, FACS + sequencing; frameworks hold sequencing errors

{"polymer sequence": "QVQLVESGGGLVQAGGRLRLSCAASGGTFYTYFMGWYRQAPGKERELVAAISQSGGRTYYADSVKGRFTISRDNAKNTVYLQMISLKPEDTAVYYCAAPDESYSFWRLDGLDYWGQGTQVTVSS", "polyreactivity (PSR sort gate)": "high polyreactivity"}
{"polymer sequence": "QVQLVESGGGLVQAGGSLRLSCAGSGSTFVYNAMGWYRQAPGKERELVAAITAAGGRTYYADSVKGRFTISRDTAKNTVYLQMNSLKPEDTAVYYCYTVRPHGMDYWGQGTQVTVSS", "polyreactivity (PSR sort gate)": "high polyreactivity"}
{"polymer sequence": "QVQLVESGGGLVQAGGSLRLSCAASGFTSTINAMGWYRQAPGKERELVAAISVSSGSTYYADSVKGRFTISRDNAKNTVYLQMNSLKPEDTAVYYCATGISRDYIYIILRYDYWGQGTQVTVSS", "polyreactivity (PSR sort gate)": "low polyreactivity"}
{"polymer sequence": "QVQLVESGGGLVQAGGSLRLSCAASGRIFRYYAMGWYRQAPGKERELVAAISKTGGSTYYADSVKGRFTISRDNAKNTVYLQMNSLKPEDTAVYYCAAVGRYSYLSSEGDYWGQGTQVTVSS", "polyreactivity (PSR sort gate)": "high polyreactivity"}
{"polymer sequence": "QVQLVESGGGLVQAGGSLRLSCAASGSTFAAYAMGWYRPAPGTERELVAAISASGGSTYYADSVKGRFTISRDNEKNTVYLQMNSLKPEDTAVYYCAARVFRGLGEYYWGQGTQVTVSS", "polyreactivity (PSR sort gate)": "high polyreactivity"}
{"polymer sequence": "QVQLVESGGGLVQAGGSLRLSCAASGGTFATYAMGWYRQAPGKEKELVAAISWSGGSTYYADSVKGRFTISRDNAKNTVYLQMNSLKPEDTAVYYCNALPRLGGGAEKLDYWGQGTQVTVSS", "polyreactivity (PSR sort gate)": "high polyreactivity"}
{"polymer sequence": "QVQLVESGGGLVQAGGSLRLSCAASGSIFPYYAMGWYRKAPGKERELVAAISSSGGSTTYADSVKGRFTISRDHAKNTVYLQMNSLKPEDTAVYYCAALTYRRSSGGFDYWGQGTQVTVSS", "polyreactivity (PSR sort gate)": "high polyreactivity"}
{"polymer sequence": "QVQLVESGGGLVQAGGSLRLSCAASVSNFPPYVMGWYRQAPGKERELVAAITWSSGSTYYADSVKGRFTISRDNAKNTVYLQMNRLKPEDTAVYYCAAVLPFKYDYWGQGTQVTVSS", "polyreactivity (PSR sort gate)": "low polyreactivity"}
{"polymer sequence": "QVQLVESGGGLVQAGGSLRLSCAASGSIFYHNAMGWYRQAPGKERELVAAISRSGGITSYADSVKGRFTISRDNAKNTVYLQMNSLKPEDTAVYYCAARSYYDGFYYWGQGTQVTVSS", "polyreactivity (PSR sort gate)": "high polyreactivity"}
{"polymer sequence": "QVQLVESGGGLVQAGGSLRLSCAASGSIFGRNAMGWYRQAPGKERELVAAITGSTYYADSVKGRFTISRDNAKNTVYLQMNSLKPEDTAVYYCNADYDVGWTYDTEYNYWGQGTQVTVSS", "polyreactivity (PSR sort gate)": "low polyreactivity"}
{"polymer sequence": "QVQLVESGGGLVQAGGSLRLSCAASGSIFHSYAMGWYRQAPGKERDFVASITQRVGRTNYADSVKGRFTISRDNAKNTVYLQMNSLKPEDTAVYYFAASYWRLYYRRDYWGQGTQVTVSS", "polyreactivity (PSR sort gate)": "high polyreactivity"}
{"polymer sequence": "QVQLVDSGGGLVQAGGSLRLSCAASGYTLSVNAMGWYRQAPGKERELVATIDFGGGSTYYADSVKGRFTISRDNAKNTVYLQMNSLKPEDTAVYYCNAHDFGFYRFSLPGYDYWGQGTQVTVSS", "polyreactivity (PSR sort gate)": "low polyreactivity"}
{"polymer sequence": "QVQLVESGAGLVQAGGSLRLSCAASGSIFRVYAMGWYRQAPGKERELVAAISQSADSTYYADSVKGRFTILRDNAKYTVYLQMNSLKPEDTAVYYCAAEYPYIYRFDYWGQGTQVTVSS", "polyreactivity (PSR sort gate)": "low polyreactivity"}
{"polymer sequence": "QVQLVESGGGLVQAGGSLRLSCAASGRTFLSYAMGWYRQAPGKERELVAAITSSGGTTNYADSVKGRFTISRDNAKNTVYLQMNSLKPEDTAVYYCAAYSWYFGSRYDYWGQGTQVTVSS", "polyreactivity (PSR sort gate)": "low polyreactivity"}
{"polymer sequence": "QVQLVESGGGLVQAGGSLPLSCAASGRTFRRYGMGWYSNAHGKERELVAGISGYGTTNYADSVKGRFTISRDNAKNTVYLQMNSLKPEDSAVYYCAAGRPYYYTYSGLYYWGQGTQVTVSS", "polyreactivity (PSR sort gate)": "high polyreactivity"}
{"polymer sequence": "QVQLVESGGGLVQAGGSLRLSCAASGRTFAIYAMGWYRQAPGKERELVAAIRKRGSITYYADSVKGRFTISRDNAKNTVYLQMNSLKPEDTAVYYCAVDYWGQGTQVTVSS", "polyreactivity (PSR sort gate)": "high polyreactivity"}
{"polymer sequence": "QVQLVESGGGLVQAGGSLRLSCAASGLIFGYYAKGWNTQAPGKERELVADISSGGSSNYADSVKGRFTISRDNAKNTVYLQMMSLKPEVTAVYYCAARYSRWFGFWGQGTQVTVSS", "polyreactivity (PSR sort gate)": "high polyreactivity"}
{"polymer sequence": "QVQLVESGGGLVQAGGSLRLSCAASGSTSVKYAMGWYRQAPGKERELVAAIRKRGDSTYYADSVKGRFTISRDNAKYSVYLQMNSLKAEDTAVYYCAAQYLRGRGYWGQGTQVTVSS", "polyreactivity (PSR sort gate)": "low polyreactivity"}
{"polymer sequence": "QVQLVESGGGLVQAGGSLRLSCAASGFTFSRNTMGWYRQAPGKARELVARISASGGSTYYADSVKGRFTISRDNAKNTVYLQMNSLKPEDTAVYYCAAVYRRYGGSRYDYWGQGTQVTVSS", "polyreactivity (PSR sort gate)": "high polyreactivity"}
{"polymer sequence": "QVQLVESGGGLVQAGGSLRLSCPASGFNFRYYAIGWYRQAPGKERQLVAAISRIGGSTNYADSVKGRFTISRDNAKNTVYLQLNSLKPEDTAVYYCAVAEGYSPAYLRDYWGQGSQVTVSS", "polyreactivity (PSR sort gate)": "high polyreactivity"}
{"polymer sequence": "QVQLVESGGGIVQAGGSLRLSCAASGITFDLYAMGWSRQAPGKERELVAASTYYADSVKWRFTISRDYAKNTVYLQMNSLKPEDTAVYYCITREPVTSDYWGLGTQVTVSS", "polyreactivity (PSR sort gate)": "high polyreactivity"}
